Data provenance: patent US9669003B2

Test system: Kunming mice
Assay: Influence on hypnosis effect with pentobarbital sodium doses at the threshold (50 mg/kg i.p.)
Type: in vivo
Details: 50 mg/kg intragastric single dose, pentobarbital sodium 50 mg/kg i.p. 60 min later, x ± s, n = 10
Can you tell me duration of sleep for the items I'm about to list?
Please give a number only; it is taken to be in min.

Data request: I am curious: what duration of sleep value has been reported for `COc1ccc(-c2cc(=O)c3c(OC)c(OC)c(OC)cc3o2)cc1OC` ?
Data returned: 39.41

Data request: Find the recorded duration of sleep belonging to COc1ccc(C2CC(=O)c3cc(CCS(=O)(=O)O)c(C4CCNC4)c(N)c3O2)cc1SC#N (stereo not shown) and report it.
Data returned: 58.53

Data request: Which duration of sleep value belongs to `C=Cc1ccc(-c2cc(=O)c3cc(C#N)c(Cc4ccccc4)c(C=CC)c3o2)cc1[N+](=O)[O-]` ?
Data returned: 46.11

Data request: Reported duration of sleep for `C=Cc1c(C#N)cc(-c2cc(=O)c3c(C=CC)cc(Cc4ccccc4)cc3o2)cc1[N+](=O)[O-]` : what is it?
Data returned: 66.34

Data request: What value of duration of sleep has been recorded for this entry: COc1ccc(C2CC(=O)c3c(OC)c(OC)c(OC)c(OC)c3O2)cc1 (stereo not shown)
Data returned: 43.26

Data request: Fill in: duration of sleep of `C#Cc1ccc(-c2cc(=O)c3cc(F)c(C(=O)O)c(O)c3o2)cc1CCCCCCCCCCCCCCCCCCCC` is ___
Data returned: 36.53

Data request: Can you share its duration of sleep? I mean this compound: `COc1cc(-c2cc(=O)c3c(OC)c(OC)c(OC)cc3o2)cc(OC)c1OC`
Data returned: 57.33

----------
Assignment: determine reported rate of sleeping (%) for the given molecules.
System: Kunming mice
Assay: Influence on hypnosis effect with pentobarbital sodium doses below the threshold (25 mg/kg i.p.)
Assay type: in vivo
Conditions: test drug 50 mg/kg intragastric single dose, pentobarbital sodium 25 mg/kg i.p. 60 min later, sleep observed in 30 min, n = 10
Marks after values point to notes of the source that are not given here.

Data request: I have this molecule here, COc1c(O)cc(C2CC(=O)c3c(O)cc(O)cc3O2)cc1C(=O)O (stereo not shown) [Example 50] , and I need its recorded rate of sleeping (%).
Data returned: 40* %

Data request: rate of sleeping (%) for COc1ccc(-c2cc(=O)c3c(O)cc(OC)c(OC)c3o2)c(OC)c1OC [Example 9] ?
Data returned: 70** %

Data request: Param item = COc1cc(C2Oc3c(OC)c(OC)c(OC)c(O)c3C(=O)C2OC)c(OC)c(OC)c1OC (stereo not shown) [Example 68] ; retrieve measured rate of sleeping (%).
Data returned: 40* %

Data request: rate of sleeping (%) for CCCCCc1cc(-c2cc(=O)c3c(CC)cc(CCCCCCl)cc3o2)cc(O)c1Cc1ccccc1 [Example 19] ?
Data returned: 60** %

----------
Tested on: Kunming mice
Test: Influence on hypnosis effect with pentobarbital sodium doses below the threshold (25 mg/kg i.p.)
Format: in vivo
Settings: test drug 50 mg/kg intragastric single dose, pentobarbital sodium 25 mg/kg i.p. 60 min later, sleep observed in 30 min, n = 10
Marks after values point to notes of the source that are not given here.
Assay Metric: rate of sleeping (%)

Data request: Quick one: rate of sleeping (%) of `COc1ccc(O)cc1-c1cc(=O)c2c(O)cc(OC)c(OC)c2o1` ?
Data returned: 80*** %

Data request: Can you share its rate of sleeping (%)? I mean this molecule: C=Cc1cc(C2CC(=O)c3cc(C(N)=O)c(C4CCSC4)c(Oc4ccccc4)c3O2)ccc1N (centres unmarked)
Data returned: 60** %

Data request: Can you look up the measured rate of sleeping (%) of `CC=Cc1cc(-c2cc(=O)c3c(CCCCC)cc(C(=O)O)cc3o2)cc(C(=O)O)c1C#N` for me?
Data returned: 50** %

Data request: I would be grateful if you could share the reported rate of sleeping (%) for `CCCc1cc(-c2cc(=O)c3c(I)cc(CCS(=O)(=O)O)cc3o2)cc(C(N)=O)c1C(=O)O` .
Data returned: 40* %

Data request: Give the measured rate of sleeping (%) of `COc1ccc(-c2oc3c(OC)c(OC)c(OC)c(OC)c3c(=O)c2OC)cc1OC` .
Data returned: 60** %

Data request: Find the recorded rate of sleeping (%) belonging to `COc1ccc(-c2cc(=O)c3cc(OC)c(OC)c(OC)c3o2)cc1OC` and report it.
Data returned: 60** %

Data request: Requested read-out: rate of sleeping (%). Entry: COc1cc(OC)cc(C2CC(=O)c3c(OC)cc(OC)cc3O2)c1 (centres unmarked)
Data returned: 60** %

Data request: Consider the molecule `COc1ccc(-c2cc(=O)c3c(OC)c(OC)c(OC)c(OC)c3o2)cc1` and give its measured rate of sleeping (%).
Data returned: 60** %

Data request: Recorded rate of sleeping (%) of CC=Cc1cc(I)cc2c1OC(c1cccc(C(=O)O)c1)CC2=O (centres unmarked) , please.
Data returned: 60** %

Data request: Param item = CCc1cc(C2CC(=O)c3cc([N+](=O)[O-])c(SC#N)c(C4CCNC4)c3O2)ccc1C(=O)c1ccccc1 (centres unmarked) ; retrieve measured rate of sleeping (%).
Data returned: 50** %

Data request: So what does the record say about rate of sleeping (%) for `COc1ccc(-c2cc(=O)c3c(O)cc(OC)c(OC)c3o2)cc1O` ?
Data returned: 60** %

Data request: Returns the measured rate of sleeping (%) for the input molecule. Input: `C#Cc1ccc(-c2cc(=O)c3cc(F)c(C(=O)O)c(O)c3o2)cc1CCCCCCCCCCCCCCCCCCCC`
Data returned: 60** %

Data request: I have this molecule here, COc1cc(OC)c2c(c1)OC(c1cc(OC)c(OC)c(OC)c1)CC2=O (centres unmarked) , and I need its recorded rate of sleeping (%).
Data returned: 60** %

Data request: I'd like to know its rate of sleeping (%). The molecule in question is `COc1cc(-c2cc(=O)c3c(OC)c(OC)c(OC)cc3o2)cc(OC)c1OC`
Data returned: 60** %

Data request: Give its rate of sleeping (%) value. Item: CCCc1cc(C2CC(=O)c3c(cc(O)cc3[N+](=O)[O-])O2)cc(-c2ccccc2)c1C1CCSC1 (centres unmarked)
Data returned: 60** %

Data request: Requested read-out: rate of sleeping (%). Entry: COc1ccc(C2CC(=O)c3c(O)c(OC)c(OC)c(OC)c3O2)cc1OC (centres unmarked) [Example 43]
Data returned: 70** %

Data request: Suppose we examine the molecule C=Cc1cc2c(=O)cc(-c3ccc(CC)c(N)c3)oc2c(C2CCSC2)c1C(N)=O (centres unmarked) ; what rate of sleeping (%) value has been reported?
Data returned: 60** %

Data request: Requested field: rate of sleeping (%). Item: `COc1cc(-c2cc(=O)c3c(OC)c(OC)c(OC)c(OC)c3o2)cc(OC)c1OC`
Data returned: 60** %

Data request: Using the record for COc1ccc(C2CC(=O)c3cc(CCS(=O)(=O)O)c(C4CCNC4)c(N)c3O2)cc1SC#N (centres unmarked) , report its rate of sleeping (%).
Data returned: 60** %

Data request: I'd like to know its rate of sleeping (%). The molecule in question is `O=c1cc(-c2cc(O)c(Oc3ccccc3)c(CCCCCCCCCCCCCCCCCCCCCl)c2)oc2cc(C#Cc3ccccc3)cc([N+](=O)[O-])c12`
Data returned: 40* %

Data request: # input molecule: COc1cc(OC)c2c(=O)cc(-c3ccc(OC)c(OC)c3)oc2c1 [Example 7, 5,7,3′,4′-tetramethoxyl-flavone] ; wanted: its rate of sleeping (%)
Data returned: 60** %

Data request: Bench note: what rate of sleeping (%) did `C=Cc1c(C#N)cc(-c2cc(=O)c3c(C=CC)cc(Cc4ccccc4)cc3o2)cc1[N+](=O)[O-]` show?
Data returned: 60** %

Data request: What rate of sleeping (%) value was documented for this molecule, `COc1cc(OC)c2c(=O)cc(-c3cc(OC)c(OC)c(OC)c3)oc2c1` ?
Data returned: 70** %

Data request: Can you look up the measured rate of sleeping (%) of CCCc1ccc(C2CC(=O)c3c(O)cc([N+](=O)[O-])cc3O2)cc1OC (centres unmarked) for me?
Data returned: 60** %

Data request: Quick check: rate of sleeping (%) of COc1ccc(C2CC(=O)c3c(cc(OC)c(OC)c3OC)O2)cc1 (centres unmarked) ?
Data returned: 60** %

Data request: What does the record list as rate of sleeping (%) for `CC=Cc1cc(C(=O)O)c2c(=O)cc(-c3cc(C#N)c(F)c(C(=O)O)c3)oc2c1` ?
Data returned: 70** %

Data request: Given COc1ccc(C2CC(=O)c3c(OC)cc(OC)c(OC)c3O2)cc1OC (centres unmarked) , state its recorded rate of sleeping (%).
Data returned: 70** %

Data request: For the molecule shown here, COc1cc(OC)c2c(c1)OC(c1cc(OC)c(OC)c(OC)c1OC)CC2=O (centres unmarked) , give the reported rate of sleeping (%).
Data returned: 50** %

Data request: Any idea what rate of sleeping (%) was measured for O=C1CC(c2ccc(O)c(O)c2)Oc2cc(O)cc(O)c21 (centres unmarked) ?
Data returned: 50* %
